target: EGFR (Homo sapiens); construct: The intracellular portion of EGFR started at nucleotide 2189 (corresponding to amino acid 667) and ended at the termination codon; assay: EGFR Kinase Assay; conditions: GST-EGFR, ATP 5 μM
Sequence (P00533 669-1210 limits assumed): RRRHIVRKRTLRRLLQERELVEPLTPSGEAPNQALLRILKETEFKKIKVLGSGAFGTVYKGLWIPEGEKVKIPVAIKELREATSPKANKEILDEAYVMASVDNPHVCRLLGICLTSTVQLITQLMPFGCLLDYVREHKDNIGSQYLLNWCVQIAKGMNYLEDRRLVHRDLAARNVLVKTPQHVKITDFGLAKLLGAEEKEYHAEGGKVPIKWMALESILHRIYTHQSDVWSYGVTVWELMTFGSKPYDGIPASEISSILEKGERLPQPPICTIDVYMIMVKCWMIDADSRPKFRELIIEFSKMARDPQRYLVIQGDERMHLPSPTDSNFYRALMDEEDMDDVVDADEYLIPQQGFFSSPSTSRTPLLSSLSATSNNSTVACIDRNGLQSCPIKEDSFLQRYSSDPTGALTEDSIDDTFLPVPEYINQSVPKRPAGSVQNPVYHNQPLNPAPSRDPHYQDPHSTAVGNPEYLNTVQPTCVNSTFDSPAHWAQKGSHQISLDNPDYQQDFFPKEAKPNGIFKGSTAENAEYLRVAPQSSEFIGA
Below, each of the compounds is paired with its reported IC50 value.
Give the quantity in µM, number only.

These solved cases illustrate the format of a correct answer.
O=C(Nc1ccc(CNC[C@H]2CCCO2)cc1)c1sc2ncnc3c2c1NC(=O)N3c1ccc(F)c(Cl)c1    0.044
CN1CCN(Cc2ccc(NC(=O)c3sc4ncnc5c4c3NC(=O)N5c3ccc(Oc4ccccc4)cc3)cc2)CC1    0.022
O=C(O)c1sc2ncnc3c2c1NC(=O)N3c1ccc(OCc2ccccn2)c(Cl)c1    0.92

Reported IC50, compound `COc1ccc(NC(=O)c2sc3ncnc4c3c2NC(=O)N4c2ccc(OCc3ccccn3)c(Cl)c2)cc1OC` : ____
0.061
